This collection of values is drawn from the supplement of paper PMC8728848.

System under test: Fuc(a1-2)Gal(b1-4)[Fuc(a1-3)]GlcNAc(b1-2)Man(a1-3)[Fuc(a1-2)Gal(b1-4)[Fuc(a1-3)]GlcNAc(b1-2)Man(a1-6)]Man(b1-4)GlcNAc(b1-4)[Fuc(a1-6)]GlcNAc
Test details: glycan array binding signal (z-score within array); higher = stronger binding
Measurement parameters: glycan notation: IUPAC condensed, linker removed
This is one part of a sample in which the strongest signals are shown more often than they occur.
Measurement type: glycan array binding signal (z-score)
The answer should be written as a number, with no unit following it.

In the examples that follow, each entry is paired with its recorded glycan array binding signal (z-score).
{"Binder": "AT5G24760(45) (Arabidopsis thaliana), Q8LEB2 (protein) MSASSSSFEQPQVITCNAAVAWRAGEPLVMEEVEVSPPQPLEIRIKVVCTSLCRSDLSAWESQSLLPRIFGHEAAGIVESIGEGVTEFEKGDHVLAVFTGECGSCRHCISGKSNMCQVLGMERKGLMHSDQKTRFSIKGKPVYHYCAVSSFSEYTVVHSGCAVKVDPLAPLHKICLLSCGVAAGLGAAWNVADVQKGSSVVIFGLGTVGLSVAQGAKLRGAAQILGVDINPAKAEQAKTFGVTDFINSNDLSEPIPQVIKRMTGGGADFSFECVGDTGIATTALQSCSDGWGMTVTLGVPKAKPEVSAHYGLFLSGKSLKGTLFGGWKPKSDLPSLIDKYMNKEIMIDEFITHNLSFDEINKAFVLMREGKCLRCVLHMPK", "Measurement type": "glycan array binding signal (z-score)", "Test value": 0.395}
{"Binder": "TIM1 (protein) ADGIQSVKVGGEAGPSVTLPCHYSGAVTSMCWNRGSCSLFTCQNGIVWTNGTHVTYRKDTRYKLLGDLSRRDVSLTIENTAVSDSGVYCCRVEHRGWFNDMKITVSLEIVPPHHHHHH", "Measurement type": "glycan array binding signal (z-score)", "Test value": 0.121}

Now let's try a different one.
QUERY: Give reported glycan array binding signal (z-score) value for OS9 (Arabidopsis thaliana) (protein) MRGSHHHHHHGMASMTGGQQMGRDLYDDDDKSRLQIFPAHLVGTFSRNNREPKYKIEFLPEDSPFHPGDNLESMVMLDKHGNRFLCYLPKEEKATSGWTSSQQNISTVMMETQQLVKLKTPDELLQPLSEKCLFRQEGWWSYEFCHQKYVRQLHVEDENKIVQEFFLGTFDPEATAAFNQTVSDASTDASQRYHSHVYTNGTTCDLTGSPREVEVRFVCAETRAMVTSITELSTCKYALTVQCPTLCKHPLFQLEKPVSHTIHCNAIPVEEDATRNKEEQAVDESPKMIADS
RESULT: -0.608
